Reference source: BigSolDB 2.1

- Condition Label: in n-propanol, 283.15 K

{"columns": ["Mol", "solubility (mole fraction)"],
 "data": [
  ["CC(=O)N[C@@H](C)C(=O)O", 0.0858]
]}

###

- Condition Label: in isopropanol, 318.15 K
Result Type: solubility (mole fraction)

{"columns": ["Mol", "Measurement"],
 "data": [
  ["CC(=O)N[C@@H](C)C(=O)O", 0.175]
]}

###

- Condition Label: in acetone, 293.15 K

{"columns": ["Mol", "solubility (mole fraction)"],
 "data": [
  ["CC(=O)N[C@@H](C)C(=O)O", 0.0329]
]}

###

- Condition Label: in n-propanol, 318.15 K
Result Type: solubility (mole fraction)

{"columns": ["Mol", "Result Type", "Measurement"],
 "data": [
  ["CC(=O)N[C@@H](C)C(=O)O", "solubility (mole fraction)", 0.186]
]}

###

- Condition Label: in n-pentanol, 313.15 K

{"columns": ["Mol", "solubility (mole fraction)"],
 "data": [
  ["CC(=O)N[C@@H](C)C(=O)O", 0.106]
]}

###

- Condition Label: in ethanol, 318.15 K

{"columns": ["Mol", "solubility (mole fraction)"],
 "data": [
  ["CC(=O)N[C@@H](C)C(=O)O", 0.235]
]}

###

- Condition Label: in n-propanol, 298.15 K

{"columns": ["Mol", "solubility (mole fraction)"],
 "data": [
  ["CC(=O)N[C@@H](C)C(=O)O", 0.118]
]}

###

- Condition Label: in methyl acetate, 323.15 K

{"columns": ["Mol", "solubility (mole fraction)"],
 "data": [
  ["CC(=O)N[C@@H](C)C(=O)O", 0.0242]
]}

###

- Condition Label: in isobutanol, 293.15 K

{"columns": ["Mol", "solubility (mole fraction)"],
 "data": [
  ["CC(=O)N[C@@H](C)C(=O)O", 0.0718]
]}

###

- Condition Label: in ethyl acetate, 298.15 K
Result Type: solubility (mole fraction)

{"columns": ["Mol", "Result Type", "Measurement"],
 "data": [
  ["CC(=O)N[C@@H](C)C(=O)O", "solubility (mole fraction)", 0.00718]
]}

###

- Condition Label: in acetone, 313.15 K
Result Type: solubility (mole fraction)

{"columns": ["Mol", "Measurement"],
 "data": [
  ["CC(=O)N[C@@H](C)C(=O)O", 0.0638]
]}

###

- Condition Label: in n-butanol, 323.15 K

{"columns": ["Mol", "solubility (mole fraction)"],
 "data": [
  ["CC(=O)N[C@@H](C)C(=O)O", 0.157]
]}

###

- Condition Label: in n-pentanol, 318.15 K
Result Type: solubility (mole fraction)

{"columns": ["Mol", "Measurement"],
 "data": [
  ["CC(=O)N[C@@H](C)C(=O)O", 0.12]
]}

###

- Condition Label: in isopentanol, 323.15 K
Result Type: solubility (mole fraction)

{"columns": ["Mol", "Measurement"],
 "data": [
  ["CC(=O)N[C@@H](C)C(=O)O", 0.139]
]}

###

- Condition Label: in acetonitrile, 303.15 K

{"columns": ["Mol", "solubility (mole fraction)"],
 "data": [
  ["CC(=O)N[C@@H](C)C(=O)O", 0.0136]
]}
